# Experiment summary: Free radical scavenging assessed as DPPH color reduction
Measurement type: SC50 (µM)

>  <Input smiles>
CCCCCCCCCC(=O)O[C@@H]1Cc2ccc(O)c(O)c2O[C@H]1c1ccc(O)c(O)c1

>  <SC50 / µM>
6.07

$$$$
>  <Input smiles>
CCCCCC(=O)O[C@@H]1Cc2ccc(O)c(O)c2O[C@H]1c1ccc(O)c(O)c1

>  <SC50 / µM>
6.68

$$$$
>  <Input smiles>
COc1ccc(C(=O)O[C@@H]2Cc3ccc(O)c(O)c3O[C@H]2c2ccc(O)c(O)c2)cc1

>  <SC50 / µM>
6.72

$$$$

P. CCCCCCCCCCCCCCCCCC(=O)O[C@@H]1Cc2ccc(O)c(O)c2O[C@H]1c1ccc(O)c(O)c1
Q. CCCCCCCCCCCCCCCC(=O)O[C@@H]1Cc2ccc(O)c(O)c2O[C@H]1c1ccc(O)c(O)c1
**Query** Which has the smaller recorded SC50, P or Q ? Choose, then provide that item's label.
**Result** Q
(Q: 5.17 µM, P: 9.43 µM)

P. O=C(O[C@@H]1Cc2ccc(O)c(O)c2O[C@H]1c1ccc(O)c(O)c1)c1ccccc1Cl
Q. O=C(O[C@@H]1Cc2ccc(O)c(O)c2O[C@H]1c1ccc(O)c(O)c1)c1ccccc1
**Query** Between these two entries, P and Q , state which has the higher SC50. Choose, then provide that item's label.
**Result** Q
(Q: 11.5 µM, P: 7.97 µM)

* * *

# Experiment summary: Free radical scavenging assessed as DPPH color reduction
Measurement type: SC50 (µM)

I. Cc1c(C)c2c(c(C)c1O)CCC(C)(C(=O)O)O2 (stereo unspecified)
II. CCCC(=O)O[C@@H]1Cc2ccc(O)c(O)c2O[C@H]1c1ccc(O)c(O)c1
**Query** Which has the smaller recorded SC50, I or II ? Choose, then provide that item's label.
**Result** II
(II: 8.89 µM, I: 15.9 µM)

P. Oc1cc(O)c2c(c1)O[C@H](c1ccc(O)c(O)c1)[C@H](O)C2 [(-)-EPICATECHIN]
Q. Oc1ccc([C@@H]2Oc3c(ccc(O)c3O)C[C@H]2O)cc1O
R. CC(C)(Sc1cc(C(C)(C)C)c(O)c(C(C)(C)C)c1)Sc1cc(C(C)(C)C)c(O)c(C(C)(C)C)c1
**Query** Ranking field: SC50; order: falling. Submit the labels in the order that the ranking request calls for.
**Result** R, P, Q
(R: 21.7 µM, P: 13.5 µM, Q: 6.72 µM)

* * *

# Experiment summary: Free radical scavenging assessed as ABTS (2,2'-azinobis-(3-ethyl benz) thiazoline-6-sulfonic acid) color change
Measurement type: SC50 (µM)

a. CCCC(=O)O[C@@H]1Cc2ccc(O)c(O)c2O[C@H]1c1ccc(O)c(O)c1
b. Cc1c(C)c2c(c(C)c1O)CCC(C)(C(=O)O)O2 (centres undefined)
**Query** Which has the smaller recorded SC50, a or b ? Choose, then provide that item's label.
**Result** b
(b: 1.82 µM, a: 14.1 µM)

A. CCCCCCCCCCCCCC(=O)O[C@@H]1Cc2ccc(O)c(O)c2O[C@H]1c1ccc(O)c(O)c1
B. CCCCCCCCCC(=O)O[C@@H]1Cc2ccc(O)c(O)c2O[C@H]1c1ccc(O)c(O)c1
**Query** Between these two entries, A and B , state which has the higher SC50. Choose, then provide that item's label.
**Result** B

a. CCCCCCCCCCCCCCCC(=O)O[C@@H]1Cc2ccc(O)c(O)c2O[C@H]1c1ccc(O)c(O)c1
b. CCCCCCCCCCCCCCCCCC(=O)O[C@@H]1Cc2ccc(O)c(O)c2O[C@H]1c1ccc(O)c(O)c1
**Query** Which has the smaller recorded SC50, a or b ? Choose, then provide that item's label.
**Result** a
(a: 10.1 µM, b: 17.8 µM)

* * *

# Experiment summary: Inhibition of yeast Alpha-glucosidase
# Set-up: species or system Saccharomyces cerevisiae
Measurement type: IC50 (µM)

Example entries begin here.
>  <Molecule>
CCCCCCCCCC(=O)O[C@@H]1Cc2ccc(O)c(O)c2O[C@H]1c1ccc(O)c(O)c1

>  <Reading>
13.5

$$$$
>  <Molecule>
CCCCCCCCCCCCCCCCCC(=O)O[C@@H]1Cc2ccc(O)c(O)c2O[C@H]1c1ccc(O)c(O)c1

>  <Reading>
54.5

$$$$
>  <Molecule>
CCCCCC(=O)O[C@@H]1Cc2ccc(O)c(O)c2O[C@H]1c1ccc(O)c(O)c1

>  <Reading>
49.3

$$$$

P. COc1ccc(C(=O)O[C@@H]2Cc3ccc(O)c(O)c3O[C@H]2c2ccc(O)c(O)c2)cc1
Q. CCCCCCCCCCCCCCCC(=O)O[C@@H]1Cc2ccc(O)c(O)c2O[C@H]1c1ccc(O)c(O)c1
**Query** Which has the smaller recorded IC50, P or Q ? Choose, then provide that item's label.
**Result** Q
(Q: 9.56 µM, P: 67.3 µM)

P. OC[C@H]1NC[C@H](O)[C@@H](O)[C@@H]1O
Q. O=C(O[C@@H]1Cc2ccc(O)c(O)c2O[C@H]1c1ccc(O)c(O)c1)c1ccccc1
R. Oc1cc(O)c2c(c1)O[C@H](c1ccc(O)c(O)c1)[C@H](O)C2 [(-)-EPICATECHIN]
**Query** In this exercise, place the 3 molecules in ascending sequence of their recorded IC50. Submit the labels in the order that the ranking request calls for.
**Result** P, Q, R

a. O=C(O[C@@H]1Cc2ccc(O)c(O)c2O[C@H]1c1ccc(O)c(O)c1)c1ccccc1Cl
b. Oc1ccc([C@@H]2Oc3c(ccc(O)c3O)C[C@H]2O)cc1O
**Query** Which has the smaller recorded IC50, a or b ? Choose, then provide that item's label.
**Result** a
(a: 43.3 µM, b: 82.3 µM)

I. CC(=O)O[C@@H]1Cc2ccc(O)c(O)c2O[C@H]1c1ccc(O)c(O)c1
II. CCCCCCCCCCCCCC(=O)O[C@@H]1Cc2ccc(O)c(O)c2O[C@H]1c1ccc(O)c(O)c1
**Query** Which has the smaller recorded IC50, I or II ? Choose, then provide that item's label.
**Result** II

* * *

# Measurement target: Xanthine dehydrogenase/oxidase (Homo sapiens, UniProt P47989)
# Sequence (P47989 whole entry): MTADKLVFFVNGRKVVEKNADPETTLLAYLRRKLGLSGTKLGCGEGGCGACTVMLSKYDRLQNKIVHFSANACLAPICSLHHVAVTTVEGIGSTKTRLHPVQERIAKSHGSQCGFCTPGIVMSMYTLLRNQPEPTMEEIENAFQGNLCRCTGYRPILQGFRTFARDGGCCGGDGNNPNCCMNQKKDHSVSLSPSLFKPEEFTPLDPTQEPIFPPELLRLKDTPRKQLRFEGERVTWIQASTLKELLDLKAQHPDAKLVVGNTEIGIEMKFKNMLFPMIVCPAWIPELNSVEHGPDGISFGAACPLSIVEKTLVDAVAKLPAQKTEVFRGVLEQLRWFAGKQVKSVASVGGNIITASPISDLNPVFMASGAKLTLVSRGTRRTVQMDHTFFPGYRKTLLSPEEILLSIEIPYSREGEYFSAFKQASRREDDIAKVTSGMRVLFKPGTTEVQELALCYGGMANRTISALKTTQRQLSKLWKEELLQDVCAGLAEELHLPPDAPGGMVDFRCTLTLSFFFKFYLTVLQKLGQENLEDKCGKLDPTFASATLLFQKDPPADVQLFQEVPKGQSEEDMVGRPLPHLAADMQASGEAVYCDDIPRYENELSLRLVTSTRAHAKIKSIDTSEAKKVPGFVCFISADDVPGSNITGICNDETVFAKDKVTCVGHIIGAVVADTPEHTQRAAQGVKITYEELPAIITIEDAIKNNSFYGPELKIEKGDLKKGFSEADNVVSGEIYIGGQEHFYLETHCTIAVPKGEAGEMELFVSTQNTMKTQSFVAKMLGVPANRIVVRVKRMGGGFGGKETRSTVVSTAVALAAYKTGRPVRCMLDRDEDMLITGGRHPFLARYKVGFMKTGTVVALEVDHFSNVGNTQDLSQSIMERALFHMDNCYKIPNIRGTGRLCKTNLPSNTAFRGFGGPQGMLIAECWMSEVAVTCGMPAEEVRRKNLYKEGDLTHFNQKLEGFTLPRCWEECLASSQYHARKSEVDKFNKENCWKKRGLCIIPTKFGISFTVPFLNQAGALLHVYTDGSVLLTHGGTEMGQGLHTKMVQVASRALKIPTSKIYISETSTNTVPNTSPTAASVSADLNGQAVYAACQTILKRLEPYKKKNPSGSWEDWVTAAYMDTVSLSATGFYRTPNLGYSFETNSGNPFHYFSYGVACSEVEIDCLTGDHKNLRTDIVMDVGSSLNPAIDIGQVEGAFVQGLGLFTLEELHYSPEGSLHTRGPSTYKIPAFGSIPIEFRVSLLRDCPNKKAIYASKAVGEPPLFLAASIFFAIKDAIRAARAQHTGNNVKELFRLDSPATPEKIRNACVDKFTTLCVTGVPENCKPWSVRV
# Experiment summary: Inhibition of Xanthine oxidase
# Assay type: single protein
Measurement type: IC50 (µM)

>  <Input smiles>
CCCCCC(=O)O[C@@H]1Cc2ccc(O)c(O)c2O[C@H]1c1ccc(O)c(O)c1

>  <IC50 (µM)>
129

$$$$
>  <Input smiles>
CCCCCCCCCCCCCC(=O)O[C@@H]1Cc2ccc(O)c(O)c2O[C@H]1c1ccc(O)c(O)c1

>  <IC50 (µM)>
102

$$$$
>  <Input smiles>
CC(=O)O[C@@H]1Cc2ccc(O)c(O)c2O[C@H]1c1ccc(O)c(O)c1

>  <IC50 (µM)>
150

$$$$
>  <Input smiles>
CCCCCCCCCC(=O)O[C@@H]1Cc2ccc(O)c(O)c2O[C@H]1c1ccc(O)c(O)c1

>  <IC50 (µM)>
112

$$$$
>  <Input smiles>
CCCCCCCCCCCCCCCCCC(=O)O[C@@H]1Cc2ccc(O)c(O)c2O[C@H]1c1ccc(O)c(O)c1

>  <IC50 (µM)>
156

$$$$

A. CCCC(=O)O[C@@H]1Cc2ccc(O)c(O)c2O[C@H]1c1ccc(O)c(O)c1
B. CCCCCCCCCCCCCCCC(=O)O[C@@H]1Cc2ccc(O)c(O)c2O[C@H]1c1ccc(O)c(O)c1
**Query** Between these two entries, A and B , state which has the higher IC50. Choose, then provide that item's label.
**Result** A
(A: 139 µM, B: 94.7 µM)

* * *

# Experiment summary: Free radical scavenging assessed as ABTS (2,2'-azinobis-(3-ethyl benz) thiazoline-6-sulfonic acid) color change
Measurement type: SC50 (µM)

>  <Input smiles>
CCCCCC(=O)O[C@@H]1Cc2ccc(O)c(O)c2O[C@H]1c1ccc(O)c(O)c1

>  <Units symbol>
µM

>  <Reading>
14.4

$$$$
>  <Input smiles>
Oc1ccc([C@@H]2Oc3c(ccc(O)c3O)C[C@H]2O)cc1O

>  <Units symbol>
µM

>  <Reading>
14.6

$$$$
>  <Input smiles>
CC(=O)O[C@@H]1Cc2ccc(O)c(O)c2O[C@H]1c1ccc(O)c(O)c1

>  <Units symbol>
µM

>  <Reading>
13

$$$$
